Can you tell me pEC50 for the items I'm about to list?
# studyTarget: T1, human SIRPα variant 1 (human, UniProt P78324 31-504)
# T1 construct: full length ORF on transfected CHO-K1 or HEK293 cells; entry includes the signal peptide; also called hSIRPαV1; SIRPαV1
# T1 sequence (P78324 31-504 limits assumed, change not shown): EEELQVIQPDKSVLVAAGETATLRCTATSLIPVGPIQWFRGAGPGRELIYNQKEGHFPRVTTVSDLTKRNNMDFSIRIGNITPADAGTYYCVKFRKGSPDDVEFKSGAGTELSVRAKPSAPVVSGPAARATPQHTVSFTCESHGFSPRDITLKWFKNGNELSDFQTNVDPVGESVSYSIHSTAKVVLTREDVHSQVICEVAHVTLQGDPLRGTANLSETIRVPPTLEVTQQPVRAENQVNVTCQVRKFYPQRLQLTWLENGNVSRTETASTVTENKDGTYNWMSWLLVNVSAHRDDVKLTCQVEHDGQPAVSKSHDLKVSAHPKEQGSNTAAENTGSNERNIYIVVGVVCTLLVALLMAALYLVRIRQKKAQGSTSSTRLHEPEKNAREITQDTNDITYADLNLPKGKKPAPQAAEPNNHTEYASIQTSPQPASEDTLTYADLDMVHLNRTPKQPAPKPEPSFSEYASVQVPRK
# experimentNotes: CELISA, CHO-K1 transfectants; average of two experiments
Numbers only, as −log10 of the molar value.

Past entries and their recorded results:
• hSIRPα.50A.H3L3 (antibody, human IgG4 S228P, kappa, V domains shown, human IgG4 S228P, kappa; also called hSIRPα.50H3L3) VH: EVQLVQSGAEVVKPGASVMISCKASGFTFTNYYIHWVRQRPGQGLEWIGWIYPGNVNTKYNEKFKARVIMTADKSTSTVYMQLSSLTSEDTAVYYCARPTIIATDFDVWGQGTLVTVSS VL: ELVMTQSPSSLSASVGDRVTITCKASQGVGTAVGWYQQKPGKAPKLLIYWASTRHTGVPDRFSGSGSGTDFTLAISSLQPEDIADYYCQQYSTYPFTFGGGTKVEIKR = 8.94
• hSIRPα.50A.H5L2 (antibody, human IgG4 S228P, kappa, V domains shown, human IgG4 S228P, kappa; also called hSIRPα.50H5L2) VH: EVQLVQSGAEVVKPGASVKVSCKASGFTFTNYYIHWVRQAPEQGLEWIGWIYPGNVNTKYNEKFKARVTMTADKSTSTAYMELSSLRSDDMAVYYCARPTIIATDFDVWGQGTTVTVSS VL: DIVMTQSPSSLSASVGDRVTITCKASQGVGTAVGWYQQKPGKAPKLLIYWASTRHTGVPDRFSGSGSGTDFTLTISNLQPEDFADYYCQQYSTYPFTFGGGTKVEIKR = 9.17

The binder identified as hSIRPα.50A.H5L5 (antibody, human IgG4 S228P, kappa, V domains shown, human IgG4 S228P, kappa; also called hSIRPα.50H5L5) VH: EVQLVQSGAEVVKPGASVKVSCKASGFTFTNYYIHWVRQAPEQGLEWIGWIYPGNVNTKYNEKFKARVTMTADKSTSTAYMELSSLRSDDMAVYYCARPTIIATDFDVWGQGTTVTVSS VL: DIVLTQSPSFLSASVGDRVTITCKASQGVGTAVGWYQQKPGKSPKLLIYWASTRHTGVPDRFSGSGSGTEFTLTISNLQPEDFAAYYCQQYSTYPFTFGGGTKLEIKR registered its pEC50 at 9.17
